Biological target: hERG potassium ion channel (Homo sapiens (Human))
Sequence (Q12809 whole entry): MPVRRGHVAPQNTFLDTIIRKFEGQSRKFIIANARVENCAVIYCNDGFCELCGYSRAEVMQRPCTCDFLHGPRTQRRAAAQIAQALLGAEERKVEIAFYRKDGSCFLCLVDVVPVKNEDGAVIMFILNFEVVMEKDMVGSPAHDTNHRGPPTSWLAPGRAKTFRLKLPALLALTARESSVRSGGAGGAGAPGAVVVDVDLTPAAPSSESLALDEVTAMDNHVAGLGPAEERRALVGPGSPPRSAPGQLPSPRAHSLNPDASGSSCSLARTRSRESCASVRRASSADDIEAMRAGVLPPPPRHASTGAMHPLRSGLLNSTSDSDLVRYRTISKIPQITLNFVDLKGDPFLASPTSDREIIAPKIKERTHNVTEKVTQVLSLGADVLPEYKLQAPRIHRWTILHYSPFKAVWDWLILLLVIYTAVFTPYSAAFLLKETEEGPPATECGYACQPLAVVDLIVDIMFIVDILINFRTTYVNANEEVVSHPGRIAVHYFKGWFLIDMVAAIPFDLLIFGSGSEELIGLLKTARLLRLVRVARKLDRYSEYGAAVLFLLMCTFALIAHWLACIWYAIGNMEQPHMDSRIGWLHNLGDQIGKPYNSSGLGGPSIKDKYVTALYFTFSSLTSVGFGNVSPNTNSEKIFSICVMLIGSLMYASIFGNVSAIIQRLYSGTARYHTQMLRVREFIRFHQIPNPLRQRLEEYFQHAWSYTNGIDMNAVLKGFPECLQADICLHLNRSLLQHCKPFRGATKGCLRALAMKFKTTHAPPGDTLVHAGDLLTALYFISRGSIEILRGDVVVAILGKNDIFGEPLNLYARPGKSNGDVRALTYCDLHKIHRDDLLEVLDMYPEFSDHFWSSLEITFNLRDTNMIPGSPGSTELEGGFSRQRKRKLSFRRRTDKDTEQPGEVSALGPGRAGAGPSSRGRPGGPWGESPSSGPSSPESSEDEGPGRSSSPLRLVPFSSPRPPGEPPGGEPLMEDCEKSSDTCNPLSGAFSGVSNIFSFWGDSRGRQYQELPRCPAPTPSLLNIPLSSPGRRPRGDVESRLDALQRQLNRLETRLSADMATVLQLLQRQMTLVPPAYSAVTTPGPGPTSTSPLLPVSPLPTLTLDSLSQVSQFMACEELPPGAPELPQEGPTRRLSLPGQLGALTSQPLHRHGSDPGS
Experiment: hERG Assay (Assay 4)
Format: cell-based
Details: HEK293 cells stably transfected with hERG cDNA, pH 7.4, Compound at 3 μM, patch clamp, HEK 293 cells
Description: Compounds of the invention were tested in vitro against the hERG (human ether-a-go-go-related gene) potassium ion channel (a surrogate for IKr, the rapidly activating delayed rectifier cardiac potassium ion channel). […] For the patch clamp experiment, onset and steady state inhibition of hERG potassium current was measured using a pulse pattern with fixed amplitudes (depolarization: +20 mV for 2 s; repolarization: −50 mV for 2 s) repeated at 10 s intervals from a holding potential of −80 mV. […]
PROPERTY NAME: inhibition at 3 µM (%)

>>> numeric_readout("CCS(=O)(=O)c1ccc([C@H](CO)NC(=O)c2cnc3c(c2)CN(C[C@H]2CC[C@H](C(F)(F)F)CC2)[C@H]3C(C)C)cc1")
44.3
>>> numeric_readout("CCS(=O)(=O)c1ccc([C@@H](NC(=O)c2cnc3c(c2)CN(C[C@H]2CC[C@H](C(F)(F)F)CC2)[C@H]3C(C)C)[C@@H](C)O)cc1 (single isomer, unassigned)")
63.9
>>> numeric_readout("CC[C@H]1c2ncc(C(=O)N[C@@H](CO)c3ccc(S(=O)(=O)CC)cn3)cc2CN1C[C@H]1CC[C@H](C(F)(F)F)CC1")
29.1
